B1: Osa-1-4 twister ribozyme (parent)
chain: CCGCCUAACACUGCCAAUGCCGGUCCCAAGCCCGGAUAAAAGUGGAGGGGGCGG

# Variants of: B1
# Experimental Details: self-cleavage, relative activity (ratio to wild type); higher = more cleavage; co-transcriptional
Outcome label depends on self-cleavage relative to 0.08: at/above gives true (1), below gives false (0).

Previously resolved entries follow.
1) C25U U18C ... true (1)
2) C52U U43C ... true (1)
3) A7G C52U ... true (1)
4) C31G G35A ... true (1)
5) A29U C32U ... false (0)
6) C15G U24A ... false (0)

// query Say whether C11A G13C shows self-cleavage of 0.08 or more.
// result false (0)

// query Same read-out for G35C G48U ?
// result false (0)

// query Also, G30U U18G please.
// result false (0)

All figures here come from the RNAGym collection of RNA variant scans (doi:10.1002/anie.201605470).
